- Tested on: Frankliniella occidentalis
- protocol: Test Example 1: water trap attraction test, single compounds
- Assay type: in vivo
- Set-up: key: (captured treated − captured untreated)×100/total released per cage
- measurement context: single compound, Amount 0.01 μg; 30 adult females per cage; 24 hours
- Procedure: Hexane solutions were prepared respectively containing single compounds selected from among p-anisaldehyde, benzaldehyde, ethyl nicotinate, geraniol, linalool, nerol, citronellol, methyl anthranilate, methyl benzoate, o-aminoacetophenone, o-anisidine, methyl m-aminobenzoate, methyl o-toluate and α-hexylcinnamaldehyde. […] 24 hours later, the number of Frankliniella occidentalis captured in the water trap was counted and the attraction rate was calculated using Equation 1. […]
# maps each entry to its Attraction Rate
// return just the number, without any unit appended

molecule: CC(C)=CCC/C(C)=C\CO [Nerol, nerol]
Attraction Rate: 10
--
molecule: CC(C)=CCC/C(C)=C/CO [Geraniol, geraniol]
Attraction Rate: 10
--
molecule: COC(=O)c1ccccc1 [Methyl benzoate, methyl benzoate]
Attraction Rate: 7

Quick one: Attraction Rate of CCOC(=O)c1cccnc1 [Ethyl nicotinate, ethyl nicotinate] ?
13

Proceed to COc1ccccc1N [o-anisidine]
6

Proceed to COc1ccc(C=O)cc1 [p-anisaldehyde]
17

Proceed to CCCCCCC(C=O)=Cc1ccccc1 [α-hexylcinnamaldehyde]
13

Proceed to COC(=O)c1ccccc1C [Methyl o-toluate, methyl o-toluate]
3

Proceed to COC(=O)c1ccccc1N [Methyl anthranilate, methyl anthranilate]
10

Proceed to CC(C)=CCCC(C)CCO (centres unmarked) [Citronellol, citronellol]
7

Proceed to C=CC(C)(O)CCC=C(C)C (centres unmarked) [Linalool, linalool]
13
